# system: Tyrosine-protein kinase BTK (Homo sapiens, UniProt Q06187)
# Sequence (Q06187 whole entry): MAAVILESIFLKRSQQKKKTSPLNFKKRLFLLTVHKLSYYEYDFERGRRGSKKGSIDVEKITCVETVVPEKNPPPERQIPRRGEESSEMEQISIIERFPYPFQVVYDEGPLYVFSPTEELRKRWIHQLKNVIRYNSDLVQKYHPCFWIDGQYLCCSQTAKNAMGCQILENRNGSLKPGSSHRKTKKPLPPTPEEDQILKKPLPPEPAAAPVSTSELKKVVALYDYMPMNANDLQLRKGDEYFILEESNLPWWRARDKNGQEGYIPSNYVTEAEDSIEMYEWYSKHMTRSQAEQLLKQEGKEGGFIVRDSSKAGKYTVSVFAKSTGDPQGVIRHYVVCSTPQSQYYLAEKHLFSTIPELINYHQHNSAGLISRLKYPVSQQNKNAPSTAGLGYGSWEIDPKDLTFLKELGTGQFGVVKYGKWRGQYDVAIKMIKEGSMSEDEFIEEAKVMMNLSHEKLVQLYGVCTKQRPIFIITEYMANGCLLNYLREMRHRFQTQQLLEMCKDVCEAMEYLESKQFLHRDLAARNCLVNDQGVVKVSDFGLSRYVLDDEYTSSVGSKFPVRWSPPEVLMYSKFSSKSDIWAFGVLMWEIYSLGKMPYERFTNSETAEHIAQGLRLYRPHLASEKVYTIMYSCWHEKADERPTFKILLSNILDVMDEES
experimental endpoint: pIC50
Worth noting: pIC50 values are minus log10 of concentrations stated in mol/L.

Asked: Which value of pIC50 has been reported for CC(C)Cn1c2ccc(Nc3ncccn3)cc2c2c3c(c4c(c21)CCc1nn(C)cc1-4)C(=O)NC3 in the records?
Given back: 7.03

* * *

# test summary: Cmax in Sprague-Dawley rat at 5 mg/kg, po
# Format: ADME, organism-based
# Design: dose 5 mg/kg, route oral
# protocol conditions: in vivo
experimental endpoint: Cmax (ng/mL)
Give the value, in units of ng/mL, as a plain number.

Asked: Which Cmax is listed for CC(C)Cn1c2ccc(Nc3ncccn3)cc2c2c3c(c4c(c21)CCc1nn(C)cc1-4)C(=O)NC3 ?
Given back: 1330
